# TEST_TARGET: 5-hydroxytryptamine receptor 1B (Homo sapiens, UniProt P28222)
# Sequence (P28222 whole entry): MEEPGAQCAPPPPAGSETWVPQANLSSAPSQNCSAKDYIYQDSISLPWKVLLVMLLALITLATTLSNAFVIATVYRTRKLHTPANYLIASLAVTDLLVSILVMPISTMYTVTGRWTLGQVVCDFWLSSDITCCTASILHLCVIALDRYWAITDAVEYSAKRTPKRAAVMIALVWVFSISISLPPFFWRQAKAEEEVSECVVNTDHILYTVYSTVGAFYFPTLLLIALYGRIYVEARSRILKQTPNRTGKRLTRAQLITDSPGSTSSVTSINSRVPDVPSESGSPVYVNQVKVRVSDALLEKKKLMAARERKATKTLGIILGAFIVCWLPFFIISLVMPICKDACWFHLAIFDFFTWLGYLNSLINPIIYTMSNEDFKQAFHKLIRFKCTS
# TEST_METHOD_NOTES: Displacement of [3H]5-HT from human recombinant 5HT1B receptor expressed in CHO cells
log10(Ki) by entry:
Form field - Quantity: Ki; Unit: nM; Scale: log10

CHEMICAL_STRING: CCN1C(=O)COc2ccc(CC3CCN(CCOc4cccc5nc(C)ccc45)CC3)cc21
PROPERTY_NAME: log10(Ki)
RECORDED_VALUE: 0.60

CHEMICAL_STRING: Cc1ccc2c(OCCN3CCN(Cc4ccc5c(c4)N(CCc4ccccc4)C(=O)CO5)CC3)cccc2n1
PROPERTY_NAME: log10(Ki)
RECORDED_VALUE: 1.40

CHEMICAL_STRING: Cc1ccc2c(OCCN3CCN(Cc4ccc5c(c4)N(C)C(=O)CO5)CC3)cccc2n1
PROPERTY_NAME: log10(Ki)
RECORDED_VALUE: 0.90

CHEMICAL_STRING: Cc1ccc2c(OCCN3CCC(Cc4ccc5c(c4)N(C)C(=O)CO5)CC3)cccc2n1
PROPERTY_NAME: log10(Ki)
RECORDED_VALUE: 0.80

Below: the item to evaluate.
## Input Recorded log10(Ki) of `Cc1ccc2c(OCCN3CCN(Cc4cc(F)c5c(c4)N(C)C(=O)CO5)CC3)cccc2n1` , please.
## Output -0.70

----------
# TEST_TARGET: 5-hydroxytryptamine receptor 1B (Homo sapiens, UniProt P28222)
# TEST_METHOD_NOTES: Intrinsic activity at human recombinant 5HT1B receptor expressed in CHO cells by [35S]GTP-gamma-S binding assay relative to 5-hydroxytryptamine
# Type: functional, cell-based
Each item that follows carries a reported Intrinsic activity.
Number only, please.

Some entries whose results are on file:
CHEMICAL_STRING: CCN1C(=O)COc2ccc(CC3CCN(CCOc4cccc5nc(C)ccc45)CC3)cc21
RECORDED_VALUE: 0.4

CHEMICAL_STRING: CCN1C(=O)COc2ccc(CN3CCN(CCOc4cccc5nc(C)ccc45)CC3)cc21
RECORDED_VALUE: 0.4

## Input Give Intrinsic activity (5-hydroxytryptamine receptor 1B (Homo sapiens, UniProt P28222)) of the following molecule: `Cc1ccc2c(OCCN3CCN(Cc4ccc5c(c4)N(C)C(=O)CO5)CC3)cccc2n1`
## Output 0.8

----------
Parameter Intrinsic activity: see the listing below.
# TEST_TARGET: UniProt P08908
# Sequence (whole entry): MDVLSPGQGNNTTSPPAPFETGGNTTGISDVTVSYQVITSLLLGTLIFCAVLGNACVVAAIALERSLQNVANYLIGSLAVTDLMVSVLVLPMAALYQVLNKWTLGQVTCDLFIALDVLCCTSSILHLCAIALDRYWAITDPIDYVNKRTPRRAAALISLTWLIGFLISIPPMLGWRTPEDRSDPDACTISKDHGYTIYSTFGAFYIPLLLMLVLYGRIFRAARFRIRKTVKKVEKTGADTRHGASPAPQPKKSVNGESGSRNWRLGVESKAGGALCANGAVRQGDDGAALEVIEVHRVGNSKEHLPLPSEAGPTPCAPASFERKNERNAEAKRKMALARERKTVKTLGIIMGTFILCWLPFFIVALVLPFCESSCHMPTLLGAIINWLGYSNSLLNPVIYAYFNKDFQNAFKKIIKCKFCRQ
# TEST_METHOD_NOTES: Intrinsic activity at human recombinant 5HT1A receptor expressed in CHO cells by [35S]GTP-gamma-S binding assay relative to 5-hydroxytryptamine
# Type: functional, cell-based

Here's what some known entries look like.
CHEMICAL_STRING: CCN1C(=O)COc2ccc(CC3CCN(CCOc4cccc5nc(C)ccc45)CC3)cc21
TEST_TARGET: UniProt P08908
Intrinsic activity: 0.1
--
CHEMICAL_STRING: Cc1ccc2c(OCCN3CCC(Cc4ccc5c(c4)N(C(C)C)C(=O)CO5)CC3)cccc2n1
TEST_TARGET: UniProt P08908
Intrinsic activity: 0
--
CHEMICAL_STRING: Cc1ccc2c(OCCN3CCN(Cc4ccc5c(c4)NC(=O)CO5)CC3)cccc2n1
TEST_TARGET: UniProt P08908
Intrinsic activity: 0

## Input # Intrinsic activity lookup, item `Cc1ccc2c(OCCN3CCN(Cc4cc(F)c5c(c4)N(C)C(=O)CO5)CC3)cccc2n1`
## Output 0

## Input Requested read-out: Intrinsic activity. Entry: `Cc1ccc2c(OCCN3CCC(Cc4ccc5c(c4)N(C)C(=O)CO5)CC3)cccc2n1`
## Output 0

## Input Requested field: Intrinsic activity. Item: `Cc1ccc2c(OCCN3CCC(Cc4ccc5c(c4)NC(=O)CO5)CC3)cccc2n1`
## Output 0.1

----------
# TEST_TARGET: UniProt P28221
# Sequence (P28221 whole entry): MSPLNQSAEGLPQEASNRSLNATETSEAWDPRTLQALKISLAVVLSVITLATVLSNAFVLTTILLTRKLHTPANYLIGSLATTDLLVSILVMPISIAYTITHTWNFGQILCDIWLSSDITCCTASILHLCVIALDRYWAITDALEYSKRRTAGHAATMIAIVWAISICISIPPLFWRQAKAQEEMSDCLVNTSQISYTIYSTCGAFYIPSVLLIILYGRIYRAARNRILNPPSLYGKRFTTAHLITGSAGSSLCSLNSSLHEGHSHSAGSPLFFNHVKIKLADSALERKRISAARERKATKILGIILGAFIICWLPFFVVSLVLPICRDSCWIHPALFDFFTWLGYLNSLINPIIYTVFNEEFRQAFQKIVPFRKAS
# TEST_METHOD_NOTES: Intrinsic activity at human recombinant 5HT1D receptor expressed in CHO cells by [35S]GTP-gamma-S binding assay relative to 5-hydroxytryptamine
# Format: functional, cell-based
Recorded Intrinsic activity for the following compounds
# output: bare number, no unit

Examples from the recorded data:
CHEMICAL_STRING: Cc1ccc2c(OCCN3CCN(Cc4ccc5c(c4F)N(C)C(=O)CO5)CC3)cccc2n1
RECORDED_VALUE: 0.6
//
CHEMICAL_STRING: Cc1ccc2c(OCCN3CCC(Cc4ccc5c(c4)NC(=O)CO5)CC3)cccc2n1
RECORDED_VALUE: 0.5

## Input Query the reported Intrinsic activity for UniProt P28221; item: `Cc1ccc2c(OCCN3CCN(Cc4cc(F)c5c(c4)N(C)C(=O)CO5)CC3)cccc2n1`
## Output 0.6

## Input Form field: Intrinsic activity recorded for `CCN1C(=O)COc2ccc(CN3CCN(CCOc4cccc5nc(C)ccc45)CC3)c(F)c21` with UniProt P28221 (enter value)
## Output 0.7

----------
# TEST_METHOD_NOTES: Ratio of drug level in brain to blood in rat at 3 mg/kg, po
# Type: ADME, organism-based
# Parameters: dose 3 mg/kg, route oral
PROPERTY_NAME: Kp

CHEMICAL_STRING: Cc1ccc2c(OCCN3CCC(Cc4ccc5c(c4)N(C)C(=O)CO5)CC3)cccc2n1
RECORDED_VALUE: 1.3

CHEMICAL_STRING: CCN1C(=O)COc2ccc(CN3CCN(CCOc4cccc5nc(C)ccc45)CC3)c(F)c21
RECORDED_VALUE: 1.2

CHEMICAL_STRING: Cc1ccc2c(OCCN3CCN(Cc4cc(F)c5c(c4)N(C)C(=O)CO5)CC3)cccc2n1
RECORDED_VALUE: 3.6

Please look at the following compound next.
## Input Please look up its Kp: `Cc1ccc2c(OCCN3CCN(Cc4ccc5c(c4F)N(C)C(=O)CO5)CC3)cccc2n1`
## Output 2.7

----------
# TEST_TARGET: Cytochrome P450 2C19 (Homo sapiens, UniProt P33261)
# Sequence (P33261 whole entry): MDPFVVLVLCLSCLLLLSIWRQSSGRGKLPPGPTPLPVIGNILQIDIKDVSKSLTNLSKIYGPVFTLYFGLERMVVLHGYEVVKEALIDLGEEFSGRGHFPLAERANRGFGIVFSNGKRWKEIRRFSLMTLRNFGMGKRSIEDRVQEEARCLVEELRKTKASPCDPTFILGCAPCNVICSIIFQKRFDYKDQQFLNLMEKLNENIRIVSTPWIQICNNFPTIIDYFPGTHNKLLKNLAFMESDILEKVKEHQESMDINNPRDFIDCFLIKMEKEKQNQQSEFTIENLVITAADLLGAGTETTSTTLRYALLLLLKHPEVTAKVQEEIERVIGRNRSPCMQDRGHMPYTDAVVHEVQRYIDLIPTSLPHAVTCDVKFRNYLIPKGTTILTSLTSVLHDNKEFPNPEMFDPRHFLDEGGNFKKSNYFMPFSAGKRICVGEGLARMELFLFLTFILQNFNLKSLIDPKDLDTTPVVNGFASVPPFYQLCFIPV
pIC50: −log10 of the molar value.
Overview of reported pIC50 across a group of compounds:

Worked cases, answers included:
CHEMICAL_STRING: Cc1ccc2c(OCCN3CCN(Cc4cc(F)c5c(c4)N(C)C(=O)CO5)CC3)cccc2n1
pIC50: < 4.72
--
CHEMICAL_STRING: CCN1C(=O)COc2ccc(CN3CCN(CCOc4cccc5nc(C)ccc45)CC3)c(F)c21
pIC50: < 5.05

## Input Look up pIC50: `Cc1ccc2c(OCCN3CCN(Cc4ccc5c(c4)N(C)C(=O)CO5)CC3)cccc2n1`
## Output < 4.70

----------
# TEST_TARGET: Cytochrome P450 2C9 (Homo sapiens)
# Sequence (P11712 whole entry): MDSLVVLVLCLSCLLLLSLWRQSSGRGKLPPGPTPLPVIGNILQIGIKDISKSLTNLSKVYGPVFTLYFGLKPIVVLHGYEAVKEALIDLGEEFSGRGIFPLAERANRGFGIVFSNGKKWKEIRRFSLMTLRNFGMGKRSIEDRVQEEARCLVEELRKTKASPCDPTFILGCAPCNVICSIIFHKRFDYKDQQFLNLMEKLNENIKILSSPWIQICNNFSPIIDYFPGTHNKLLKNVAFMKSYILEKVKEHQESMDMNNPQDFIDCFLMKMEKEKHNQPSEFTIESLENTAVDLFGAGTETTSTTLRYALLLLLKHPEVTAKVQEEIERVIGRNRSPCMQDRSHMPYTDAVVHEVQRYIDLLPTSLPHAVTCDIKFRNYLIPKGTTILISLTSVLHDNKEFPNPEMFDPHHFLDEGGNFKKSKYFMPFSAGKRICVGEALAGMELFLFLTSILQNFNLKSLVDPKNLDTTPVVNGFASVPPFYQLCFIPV
pIC50: −log10 of the molar value.
PROPERTY_NAME: pIC50

CHEMICAL_STRING: CCCN1C(=O)COc2ccc(CN3CCN(CCOc4cccc5nc(C)ccc45)CC3)cc21
PROPERTY_NAME: pIC50
RECORDED_VALUE: 4.74

CHEMICAL_STRING: Cc1ccc2c(OCCN3CCN(Cc4ccc5c(c4)N(C)C(=O)CO5)CC3)cccc2n1
PROPERTY_NAME: pIC50
RECORDED_VALUE: < 4.70

CHEMICAL_STRING: Cc1ccc2c(OCCN3CCN(Cc4ccc5c(c4)N(CCc4ccccc4)C(=O)CO5)CC3)cccc2n1
PROPERTY_NAME: pIC50
RECORDED_VALUE: 5.40

CHEMICAL_STRING: CCN1C(=O)COc2ccc(CN3CCN(CCOc4cccc5nc(C)ccc45)CC3)c(F)c21
PROPERTY_NAME: pIC50
RECORDED_VALUE: < 5.05

CHEMICAL_STRING: Cc1ccc2c(OCCN3CCN(Cc4cc(F)c5c(c4)N(C)C(=O)CO5)CC3)cccc2n1
PROPERTY_NAME: pIC50
RECORDED_VALUE: < 4.72

Please turn your attention to the following entry.
## Input // map `Cc1ccc2c(OCCN3CCN(Cc4ccc5c(c4F)N(C)C(=O)CO5)CC3)cccc2n1` to recorded pIC50 (system: Cytochrome P450 2C9 (Homo sapiens))
## Output < 4.80
